Just for reference, patent US20220064195A1 is where these values come from.

- SYSTEM_UNDER_TEST: I2-IR
- ASSAY_PROCEDURE: Competition binding against the selective I2-IR radioligand [3H]-2-BFI in membranes from post-mortem human frontal cortex
- CONDITIONS: membranes from post-mortem human frontal cortex; radioligand [3H]-2-BFI
Assign Condition met to entries whose [^3H]-2-BFI I2 binding affinity (pKi) meets or exceeds 8; assign Condition not met to the rest.

* CCOP(=O)(OCC)[C@]1(c2ccccc2)N=C[C@H]2C(=O)N(CCc3ccccc3)C(=O)[C@H]21 (racemic) | Condition not met
* CCOP(=O)(OCC)[C@]1(c2ccccc2)N=C[C@H]2C(=O)N(Cc3ccccc3)C(=O)[C@H]21 (racemic) | Condition not met
* CCOP(=O)(OCC)[C@]1(c2ccccc2)N=C[C@H]2C(=O)N(c3ccc(Oc4ccccc4)cc3)C(=O)[C@H]21 (racemic) | Condition not met
* CCOP(=O)(OCC)[C@]1(c2ccccc2)N=C[C@H]2C(=O)N(c3ccc(OC)cc3)C(=O)[C@H]21 (racemic) | Condition not met
* O=C1[C@@H]2[C@@H](C=N[C@@]2(c2ccccc2)P(=O)(Oc2ccccc2)Oc2ccccc2)C(=O)N1c1ccccc1 (racemic) | Condition not met
* CCOP(=O)(OCC)[C@]1(C)N=C[C@H]2C(=O)N(C)C(=O)[C@H]21 (racemic) | Condition met
* CCOP(=O)(OCC)[C@]1(c2ccccc2)N=C[C@H]2C(=O)N(C3CCCCC3)C(=O)[C@H]21 (racemic) | Condition met
* CCOP(=O)(OCC)[C@]1(c2ccccc2)N=C[C@H]2C(=O)N(c3ccccc3)C(=O)[C@H]21 (racemic) | Condition met
* CCOP(=O)(OCC)[C@]1(c2ccccc2)N=C[C@H]2C(=O)N(c3cccc([N+](=O)[O-])c3)C(=O)[C@H]21 (racemic) | Condition not met

* * *

- ASSAY_PROCEDURE: Dissolution of test compounds noted in the PAMPA-BBB assay (PBS:EtOH 70:30)
- Format: physicochemical
- Set-up: key: *= poor dissolution
RECORDED_METRIC: dissolution

* CCOP(=O)(OCC)[C@]1(c2ccccc2)N=C[C@H]2C(=O)N(c3ccc(Br)cc3)C(=O)[C@H]21 (racemic) [Compound I-47] | I-47*
* CCOP(=O)(OCC)[C@]1(c2ccccc2)N=C[C@H]2C(=O)N(Cc3ccccc3)C(=O)[C@H]21 (racemic) [Compound I-29] | I-29*
* O=C1[C@@H]2[C@@H](C=N[C@@]2(c2ccccc2)P(=O)(Oc2ccccc2)Oc2ccccc2)C(=O)N1c1ccccc1 (racemic) [Compound I-26] | I-26*
* CCOP(=O)(OCC)[C@]1(c2ccccc2)N=C[C@H]2C(=O)N(c3cccc(Cl)c3)C(=O)[C@H]21 (racemic) [Compound I-53] | I-53*
* CCOP(=O)(OCC)[C@]1(c2ccccc2)N=C[C@H]2C(=O)N(c3cccc([N+](=O)[O-])c3)C(=O)[C@H]21 (racemic) [Compound I-28] | I-28*
* CCOP(=O)(OCC)[C@]1(c2ccccc2)N=C[C@H]2C(=O)N(c3cc([N+](=O)[O-])ccc3C)C(=O)[C@H]21 (racemic) [Compound I-50] | I-50*

* * *

- ASSAY_PROCEDURE: in vitro
- CONDITIONS: pig, PAMPA
Listed compounds paired with reported Papp
RECORDED_METRIC: Papp

- CCOP(=O)(OCC)[C@]1(c2ccccc2)N=C[C@H]2C(=O)N(c3ccc(C)cc3)C(=O)[C@H]21 (racemic): 8.75 ×10⁻⁶ cm/s
- CCOP(=O)(OCC)[C@]1(c2ccccc2)N=C[C@H]2C(=O)N(C3CCCCC3)C(=O)[C@H]21 (racemic): 25.9 ×10⁻⁶ cm/s
- CCOP(=O)(OCC)[C@]1(C)N=C[C@H]2C(=O)N(C)C(=O)[C@H]21 (racemic): 4.6 ×10⁻⁶ cm/s
- CCOP(=O)(OCC)[C@]1(c2ccccc2)N=C[C@H]2C(=O)N(c3ccc(F)cc3)C(=O)[C@H]21 (racemic): 3.2 ×10⁻⁶ cm/s
- CCOP(=O)(OCC)[C@]1(c2ccccc2)N=C[C@H]2C(=O)N(c3ccc(Cl)c(Cl)c3)C(=O)[C@H]21 (racemic): 8.9 ×10⁻⁶ cm/s
- CCOP(=O)(OCC)[C@]1(c2ccccc2)N=C[C@H]2C(=O)N(c3cccc4ccccc34)C(=O)[C@H]21 (racemic): 1.4 ×10⁻⁶ cm/s
- CCOP(=O)(OCC)[C@]1(c2ccccc2)N=C[C@H]2C(=O)N(CC)C(=O)[C@H]21 (racemic): 3.7 ×10⁻⁶ cm/s
- CCOP(=O)(OCC)[C@]1(c2ccccc2)N=C[C@H]2C(=O)N(C(C)(C)C)C(=O)[C@H]21 (racemic): 6.3 ×10⁻⁶ cm/s
- CCOP(=O)(OCC)[C@]1(c2ccccc2)N=C[C@H]2C(=O)N(CCc3ccc(F)cc3)C(=O)[C@H]21 (racemic): 7.2 ×10⁻⁶ cm/s
- CCOP(=O)(OCC)[C@]1(c2ccccc2)N=C[C@H]2C(=O)N(CCc3ccccc3)C(=O)[C@H]21 (racemic): 6.2 ×10⁻⁶ cm/s
- CCOP(=O)(OCC)[C@]1(c2ccccc2)N=C[C@H]2C(=O)N(c3ccc(Br)cc3)C(=O)[C@H]21 (racemic): 4.4 ×10⁻⁶ cm/s
- O=C1[C@@H]2[C@@H](C=N[C@@]2(c2ccccc2)P(=O)(Oc2ccccc2)Oc2ccccc2)C(=O)N1c1ccccc1 (racemic): 2.3 ×10⁻⁶ cm/s
- CCOP(=O)(OCC)[C@]1(c2ccccc2)N=C[C@H]2C(=O)N(c3cccc(Cl)c3)C(=O)[C@H]21 (racemic): 3.7 ×10⁻⁶ cm/s
- CCOP(=O)(OCC)[C@]1(c2ccccc2)N=C[C@H]2C(=O)N(c3ccc(F)c(Cl)c3)C(=O)[C@H]21 (racemic): 9.7 ×10⁻⁶ cm/s
- CCOP(=O)(OCC)[C@]1(c2ccccc2)N=C[C@H]2C(=O)N(c3ccc(-c4ccccc4)cc3)C(=O)[C@H]21 (racemic): 8.2 ×10⁻⁶ cm/s
- CCOP(=O)(OCC)[C@]1(c2ccccc2)N=C[C@H]2C(=O)N(c3ccccc3)C(=O)[C@H]21 (racemic): 7.8 ×10⁻⁶ cm/s
- CCOP(=O)(OCC)[C@]1(c2ccccc2)N=C[C@H]2C(=O)N(c3cccc(C(F)(F)F)c3)C(=O)[C@H]21 (racemic): 6.9 ×10⁻⁶ cm/s
- CCOP(=O)(OCC)[C@@]1(Cc2ccccc2)N=C[C@H]2C(=O)N(C3CCCCC3)C(=O)[C@H]21 (racemic): 5.1 ×10⁻⁶ cm/s
- CCOP(=O)(OCC)[C@]1(c2ccccc2)N=C[C@H]2C(=O)N(c3cccc([N+](=O)[O-])c3)C(=O)[C@H]21 (racemic): 4.5 ×10⁻⁶ cm/s
- CCOP(=O)(OCC)[C@]1(c2ccccc2)N=C[C@H]2C(=O)N(Cc3ccccc3)C(=O)[C@H]21 (racemic): > 30 ×10⁻⁶ cm/s
- CCCN1C(=O)[C@@H]2[C@@H](C=N[C@@]2(c2ccccc2)P(=O)(OCC)OCC)C1=O (racemic): 6.2 ×10⁻⁶ cm/s
- CCOP(=O)(OCC)[C@]1(c2ccccc2)N=C[C@H]2C(=O)N(c3ccc(OC)cc3)C(=O)[C@H]21 (racemic): 3.9 ×10⁻⁶ cm/s
- CCOP(=O)(OCC)[C@]1(c2ccccc2)N=C[C@H]2C(=O)N(c3ccc(C(F)(F)F)cc3)C(=O)[C@H]21 (racemic): 5.6 ×10⁻⁶ cm/s
- CCOP(=O)(OCC)[C@]1(c2ccccc2)N=C[C@H]2C(=O)N(c3cc([N+](=O)[O-])ccc3C)C(=O)[C@H]21 (racemic): 1.4 ×10⁻⁶ cm/s
- CCOP(=O)(OCC)[C@]1(c2ccccc2)N=C[C@H]2C(=O)N(c3ccc(Oc4ccccc4)cc3)C(=O)[C@H]21 (racemic): 6.5 ×10⁻⁶ cm/s
- CCOP(=O)(OCC)[C@@]1(Cc2ccccc2)N=C[C@H]2C(=O)N(c3ccccc3)C(=O)[C@H]21 (racemic): 6.9 ×10⁻⁶ cm/s
- CCOP(=O)(OCC)[C@]1(c2ccccc2)N=C[C@H]2C(=O)N(c3ccc(Cl)cc3)C(=O)[C@H]21 (racemic): 5.5 ×10⁻⁶ cm/s
